Test: endothelial E-selectin expression blockers – imaging, HUVEC, immunofluorescence, MLSMR starter and 10KST1 sets, primary screen (AID 487);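 further: 100% = median nuclei count of all wells on the same plate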
Conditions: HUVEC TNFalpha-induced E-selectin immunofluorescence imaging, at 2 µM; measured here: cell number, toxicity
List of nuclei count values.
Quick reminder: number only, in %, skip the unit.

Known nuclei count results, listed for orientation:
INSERT INTO measurements (entry_smiles, unit_symbol, measured_value) VALUES
  ('CCOC(=O)N1CCC(O)(c2cc(C)c(C)cc2C)CC1', '%', 112),
  ('Cc1ccc(Cn2c(SCC(C)C)nc3c2c(=O)n(C)c(=O)n3C)cc1', '%', 119);

// sample CCSc1nc2c(c(=O)n(C)c(=O)n2C)n1Cc1ccc(Cl)cc1 , its nuclei count was 112

// sample CCCCOc1ccc(NC(=O)Cn2c(=O)ccc3c(C)cc(C)nc32)cc1 , its nuclei count was 149

// sample CC(=O)c1cc(-c2ccccc2)n(CC(=O)N2CCC(N3CCCCC3)CC2)c1C , its nuclei count was 115

// sample COc1cc(CC(=O)Nc2ncc(C)s2)cc(OC)c1OC , its nuclei count was 113

// sample Cc1oc(-c2ccccc2)cc1C(N)=O , its nuclei count was 97.7

---

List of inhibition values.
Assay: inhibitors of TNFa-induced NFkB p65 translocation, primary screen, imaging, HUVEC, MLSMR starter and 10KST1 sets (AID 438);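 further: compound added about 3h40 before a 20 min TNFalpha stimulation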;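 on inhibition: signal is the nuclear over cytoplasmic p65 intensity ratio per well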
Conditions: HUVEC TNFa-induced p65 nuclear translocation; at 2 µM, stronger effect = higher value, 0% TNFa-plus-vehicle, 100% no-TNFa wells
Quick reminder: number only, in %, skip the unit.

Known inhibition results, listed for orientation:
INSERT INTO assay_data (compound, measured_value) VALUES
  ('Cc1ccccc1CSCC(=O)c1c(N)n(C)c(=O)n(C)c1=O', 2.8),
  ('CCCC(C(=O)NCc1ccco1)N(C(=O)CNS(=O)(=O)c1ccc(Cl)cc1)C1CCCC1 (stereo not given)', -0.7),
  ('Cc1cc(-c2ccccc2)c2nncn2n1', 0.9),
  ('O=c1c2c3nc4ccccc4nc3n(CC3CCCO3)c2ncn1CCc1ccccc1 (stereo not given)', -3.2);

Next, consider the following compound.
// sample CCOCCn1cnc2sc(C(=O)NCC(=O)OCC)c(C)c2c1=O , its inhibition was 7.9

---

Experiment: inhibitors of TNFa-induced NFkB p65 translocation, primary screen, imaging, HUVEC, MLSMR starter and 10KST1 sets (AID 438);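 further: compound added about 3h40 before a 20 min TNFalpha stimulation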
Settings: HUVEC TNFa-induced p65 nuclear translocation; measured here: nuclei count (cytotoxicity indicator), at 2.08 µM
The class of a record is decided solely by its measured cell count; consult low bracket = under 400, middle bracket = from 400 up to 500, high bracket = 500 and over

INSERT INTO assay_data (molecule, discrete_label) VALUES
  ('CCC(C)(C)n1nnnc1C(c1ccccc1OC)N1CCSCC1 (configuration not stated)', 'low bracket'),
  ('COC(=O)c1cc(NC(=O)C2CC=CCC2C(=O)O)cc(C(=O)OC)c1 (configuration not stated)', 'high bracket'),
  ('O=C(c1ccco1)N1CCN(C(=O)C2CCN(S(=O)(=O)c3cccc4nsnc34)CC2)CC1', 'high bracket');

[ask] Which cell count category applies to CCOc1ccccc1Nc1nc2ccccc2[nH]1 here?
[reply] low bracket

[ask] Which cell count category applies to CC1CN(c2nc3ccccn3c(=O)c2/C=C(\C#N)S(=O)(=O)c2ccccc2)CC(C)O1 (configuration not stated) here?
[reply] high bracket

[ask] Which cell count category applies to CCOC(=O)CSc1nc2ccccc2n2cnnc12 here?
[reply] low bracket

[ask] Which cell count category applies to NC(=O)c1c(-c2ccccc2)oc2ccc(O)cc12 here?
[reply] low bracket

[ask] Which cell count category applies to Oc1ccc(-c2onc(C(F)(F)F)c2-c2cscn2)c(O)c1 here?
[reply] low bracket

[ask] Which cell count category applies to CC1CCN(S(=O)(=O)c2ccc(NC(=O)CSc3nnnn3C)cc2)CC1 here?
[reply] low bracket

[ask] Which cell count category applies to Cc1cc(-c2ccccc2)c2c3c(cn2n1)c(=O)n(C)c(=O)n3C here?
[reply] low bracket

[ask] Which cell count category applies to Cc1onc(-c2c(Cl)cccc2Cl)c1C(=O)NCCN1CCOCC1 here?
[reply] high bracket

---

Test: inhibitors of TNFa-induced NFkB p65 translocation, primary screen, imaging, HUVEC, MLSMR starter and 10KST1 sets (AID 438);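 further: compound added about 3h40 before a 20 min TNFalpha stimulation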
Conditions: HUVEC TNFa-induced p65 nuclear translocation; measured here: nuclei count (cytotoxicity indicator), at 2.08 µM
The class of a record is decided solely by its measured cell count; consult c1 = under 400, c2 = from 400 up to 600, c3 = 600 and over

Solved cases below.
INSERT INTO measurements (molecule, discrete_label) VALUES
  ('O=C(Nc1cccc(C(=O)N2CCOCC2)c1)c1cccnc1', 'c1'),
  ('CCOC(=O)c1ccc(-c2c(C(=O)OCC)oc3cc(O)c(CC)cc3c2=O)o1', 'c3'),
  ('COc1ccc(C2CC(=O)c3cnc(NC(=O)c4ccccc4OC)nc3C2)c(OC)c1 (centres undefined)', 'c2'),
  ('Cc1csc(SCC(=O)NC(=O)NCc2ccccc2)n1', 'c3');

Kindly consider the entry below.
[ask] Which cell count category applies to Brc1ccc2[nH]ncc2c1 here?
[reply] c1

---

Molecular target: Voltage-gated potassium channel subunit beta-2 (Rattus norvegicus) (UniProt P62483)
Sequence (P62483 whole entry, looked up): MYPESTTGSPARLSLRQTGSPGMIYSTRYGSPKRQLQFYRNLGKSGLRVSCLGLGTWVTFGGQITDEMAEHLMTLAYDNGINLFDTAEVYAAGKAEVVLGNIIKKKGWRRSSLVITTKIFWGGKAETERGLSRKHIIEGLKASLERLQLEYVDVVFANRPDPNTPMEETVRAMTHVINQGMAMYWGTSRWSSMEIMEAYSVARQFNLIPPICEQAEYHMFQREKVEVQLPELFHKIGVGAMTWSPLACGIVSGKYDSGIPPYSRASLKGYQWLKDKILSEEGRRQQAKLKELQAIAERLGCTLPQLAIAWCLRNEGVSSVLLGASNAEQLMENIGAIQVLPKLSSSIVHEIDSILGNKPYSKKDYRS
Experiment: enhancers of rat Kvbeta2 NADPH turnover – biochemical, NADPH fluorescence, primary screen (AID 623);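 further: fluorescence intensity change per second fitted from 20 to 320 s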
Settings: Recombinant KvBeta, NADPH fluorescence decrease slope, 10 min; at 10 µM; stronger effect = lower value
readout_type: NADPH fluorescence slope
Answer with a bare number; do not write a unit.

Known NADPH fluorescence slope results, listed for orientation:
INSERT INTO measurements (compound, measured_value) VALUES
  ('O=C(CSc1nnc(Cn2cnc3ccccc32)o1)c1ccccc1', '-3.7e-05'),
  ('Cc1ccc(C)c(N2CCN(C(=O)C3CCN(S(=O)(=O)c4c(C)noc4C)CC3)CC2)c1', '-8.1e-06'),
  ('Cn1c(=O)c2c(ncn2CC(O)CO)n(C)c1=O (stereo not given)', '4.1e-05');

Reported NADPH fluorescence slope (Voltage-gated potassium channel subunit beta-2 (Rattus norvegicus) (UniProt P62483)) for entry Cc1cc(C)n(C(=O)CNC(=O)c2ccc3c(c2)OCCO3)n1 is -5.5e-05

---

List of nuclei count values.
Assay: reduction of polyQ htt aggregates in cells – imaging, exon1htt(103Q)mCFP cells, high-content imaging, primary screen (AID 483);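 further: compound exposure lasted 3 days before fixation; percent of the per-plate median nuclei count of sample wells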
Settings: exon1htt(103Q)mCFP cell line, aggregate imaging, at 2 µM; measured here: cell count, toxicity
Quick reminder: number only, in %, skip the unit.

INSERT INTO assay_data (compound, readout_type, unit_symbol, measured_value) VALUES
  ('CC(C)(C)OC(=O)N1CCOCCOCCN(C(=O)OC(C)(C)C)CCOCCOCC1', 'nuclei count', '%', 92.3),
  ('O=C(CN1C(=O)COc2ccccc21)NCCCN1CCN(Cc2ccccc2)CC1', 'nuclei count', '%', 91.9),
  ('CN1CCN(CCCNC(=O)C2CC(=O)N(C3CCCCC3)C2)CC1 (centres undefined)', 'nuclei count', '%', 98);

// sample Oc1ccc(-c2onc(C(F)(F)F)c2-c2cscn2)c(O)c1 , its nuclei count was 92.7

---

Target: Voltage-gated potassium channel subunit beta-2 (Rattus norvegicus)
Assay: inhibitors of rat Kvbeta2 reductase activity – biochemical, NADPH fluorescence, primary screen (AID 622);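 further: slope of raw intensity against log time taken from 70 to 1610 s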
Conditions: recombinant KvBeta, 4-cyanobenzaldehyde reduction, at 10 µM, stronger effect = higher value
readout_type: fluorescence slope
Answer with a bare number; do not write a unit.

Known fluorescence slope results, listed for orientation:
INSERT INTO results (molecule, target_under_test, measured_value) VALUES
  ('CC(C)(C)C1=C[C@@H](CO)C[C@@H](CO)C1', 'Voltage-gated potassium channel subunit beta-2 (Rattus norvegicus)', -0.391),
  ('CCOc1ccc(-n2c(=O)cc(N3CCN(c4ccccc4)CC3)[nH]c2=O)cc1', 'Voltage-gated potassium channel subunit beta-2 (Rattus norvegicus)', -0.411),
  ('COc1ccc(CNc2nc3nc(C)cc(C)n3n2)cc1OC', 'Voltage-gated potassium channel subunit beta-2 (Rattus norvegicus)', -0.422);

// sample CN(C)CCCN1c2ccccc2Sc2ccc(C(F)(F)F)cc21 , its fluorescence slope was -0.487

// sample CCCCn1c(SCc2cccnc2)nc2c1c(=O)n(C)c(=O)n2C , its fluorescence slope was -0.511

// sample Oc1c(I)cc(Cl)c2cccnc12 , its fluorescence slope was -0.459

// sample O=C(O)CCc1ccc(-c2cccs2)n1NC(=O)c1ccco1 , its fluorescence slope was -0.463

// sample O=C(CN1C(=O)CCSc2ccccc21)Nc1ccc2c(c1)OCO2 , its fluorescence slope was -0.474

// sample COCCOC(=O)C1=C(C)Nc2ncnn2C1c1ccc(F)cc1 (stereo not drawn) , its fluorescence slope was -0.369

// sample C=CCNC(=O)CSc1ccc(Cl)cc1 , its fluorescence slope was -0.448

// sample CCCCCOc1ccc(Cl)cc1CN1CCOCC1 , its fluorescence slope was -0.434

// sample CCCOc1ccc(C2c3c(oc4ccccc4c3=O)C(=O)N2CCCN2CCOCC2)cc1 (stereo not drawn) , its fluorescence slope was -0.413

// sample Cc1cccc(CS(=O)(=O)Cc2ccc(C(=O)NCC3CCCO3)o2)c1 (stereo not drawn) , its fluorescence slope was -0.582

// sample CCN(CC)C(=O)CN(c1cc(Cl)ccc1OC)S(C)(=O)=O , its fluorescence slope was -0.577

meta.source: PubChem BioAssay
